Assay: Water solubility of crystalline ozanimod salt forms (Comparative Example 1)
Type: physicochemical
Conditions: 25° C.
Experimental: The water solubility of crystalline forms of ozanimod salts of Examples 1 to 124 and ozanimod hydrochloride of Preparation Example 2 were tested.
Note to self: values exactly at 3000 µg/mL are yes (1). So 25° C. water solubility at or above 3000 µg/mL is yes (1), below is no (0).

Illustrative cases are given below, each with its answer.
CC(C)Oc1ccc(-c2nc(-c3cccc4c3CC[C@@H]4NCCO)no2)cc1C#N.O=C(O)/C=C\C(=O)O [Ozanimod maleate Form 1]
no (0)
CC(C)Oc1ccc(-c2nc(-c3cccc4c3CC[C@@H]4NCCO)no2)cc1C#N.CS(=O)(=O)O [Ozanimod mesylate Form 1]
yes (1)
CC(C)Oc1ccc(-c2nc(-c3cccc4c3CC[C@@H]4NCCO)no2)cc1C#N.O=C(O)/C=C/C(=O)O [Ozanimod fumarate Form 1]
no (0)

Q: Kindly determine if 25° C. water solubility recorded for CC(C)Oc1ccc(-c2nc(-c3cccc4c3CC[C@@H]4NCCO)no2)cc1C#N.O=P(O)(O)O [Ozanimod dihydrogen phosphate Form 1] is above or exactly 3000 µg/mL.
Result: no (0)

Q: Kindly determine if 25° C. water solubility recorded for Br.CC(C)Oc1ccc(-c2nc(-c3cccc4c3CC[C@@H]4NCCO)no2)cc1C#N [Ozanimod hydrobromide Form 1] is above or exactly 3000 µg/mL.
Result: no (0)

Q: Kindly determine if 25° C. water solubility recorded for CC(C)Oc1ccc(-c2nc(-c3cccc4c3CC[C@@H]4NCCO)no2)cc1C#N.CC(C)Oc1ccc(-c2nc(-c3cccc4c3CC[C@@H]4NCCO)no2)cc1C#N.O=C(O)C[C@H](O)C(=O)O [Ozanimod hemi-L-malate Form 1] is above or exactly 3000 µg/mL.
Result: yes (1)

* * *

assay: Water solubility of crystalline ozanimod salt forms (Comparative Example 1); type: physicochemical; conditions: 37° C., read-out: 37° C. water solubility
Structures can show the parent of a compound that is named as a salt.
Readout: solubility (µg/mL)
# unit: µg/mL | format: bare number

The molecule listed as CC(C)Oc1ccc(-c2nc(-c3cccc4c3CC[C@@H]4NCCO)no2)cc1C#N [Ozanimod hydrochloride form, reference compound] shows solubility equal to 2450

* * *

test: Phase stability in aqueous system, slurry for 5 days (Comparative Example 2); format: physicochemical; conditions: slurry 5 days, ethanol/water (1:1)
Readout: Slurry for 5 days in ethanol/water (1:1) (solid state after slurry)

CC(C)Oc1ccc(-c2nc(-c3cccc4c3CCC4NCCO)no2)cc1C#N.O=S(=O)(O)O (stereo not shown) [Ozanimod hydrosulfate Form 1]
Crystalline
CC(C)Oc1ccc(-c2nc(-c3cccc4c3CC[C@@H]4NCCO)no2)cc1C#N.CS(=O)(=O)O [Ozanimod mesylate Form 1]
Crystalline
CC(C)Oc1ccc(-c2nc(-c3cccc4c3CC[C@@H]4NCCO)no2)cc1C#N.CC(C)Oc1ccc(-c2nc(-c3cccc4c3CC[C@@H]4NCCO)no2)cc1C#N.O=C(O)C[C@H](O)C(=O)O [Ozanimod hemi-L-malate Form 1]
Crystalline
CC(C)Oc1ccc(-c2nc(-c3cccc4c3CCC4NCCO)no2)cc1C#N.CC(C)Oc1ccc(-c2nc(-c3cccc4c3CCC4NCCO)no2)cc1C#N.O=S(=O)(O)O (stereo not shown) [Ozanimod hemisulfate Form 1]
Crystalline

* * *

assay: Water solubility of crystalline ozanimod salt forms (Comparative Example 1); type: physicochemical; conditions: 37° C.
Listing of recorded 37° C. water solubility by entry.
# unit: µg/mL | format: bare number

Br.CC(C)Oc1ccc(-c2nc(-c3cccc4c3CC[C@@H]4NCCO)no2)cc1C#N [Ozanimod hydrobromide Form 1]
3490
CC(C)Oc1ccc(-c2nc(-c3cccc4c3CC[C@@H]4NCCO)no2)cc1C#N.CC(C)Oc1ccc(-c2nc(-c3cccc4c3CC[C@@H]4NCCO)no2)cc1C#N.O=C(O)C[C@H](O)C(=O)O [Ozanimod hemi-L-malate Form 1]
22620
CC(C)Oc1ccc(-c2nc(-c3cccc4c3CC[C@@H]4NCCO)no2)cc1C#N.O=C(O)/C=C/C(=O)O [Ozanimod fumarate Form 1]
4550
CC(C)Oc1ccc(-c2nc(-c3cccc4c3CC[C@@H]4NCCO)no2)cc1C#N.O=C(O)/C=C\C(=O)O [Ozanimod maleate Form 1]
5290
CC(C)Oc1ccc(-c2nc(-c3cccc4c3CC[C@@H]4NCCO)no2)cc1C#N.CS(=O)(=O)O [Ozanimod mesylate Form 1]
53820

# next compound below
The compound listed as CC(C)Oc1ccc(-c2nc(-c3cccc4c3CC[C@@H]4NCCO)no2)cc1C#N.O=P(O)(O)O [Ozanimod dihydrogen phosphate Form 1] shows 37° C. water solubility equal to 7710

* * *

assay: Phase stability in aqueous system, slurry for 5 days (Comparative Example 2); format: physicochemical; settings: slurry 5 days, water
Readout: Slurry for 5 days in water (solid state after slurry)

Guide cases for Slurry for 5 days in water (solid state after slurry), answers given:
CC(C)Oc1ccc(-c2nc(-c3cccc4c3CCC4NCCO)no2)cc1C#N.O=S(=O)(O)O (stereo not shown) [Ozanimod hydrosulfate Form 1]
Crystalline
CC(C)Oc1ccc(-c2nc(-c3cccc4c3CC[C@@H]4NCCO)no2)cc1C#N.O=S(=O)(O)c1ccccc1 [Ozanimod besylate Form 1]
Crystalline
CC(C)Oc1ccc(-c2nc(-c3cccc4c3CC[C@@H]4NCCO)no2)cc1C#N.O=C(O)/C=C/C(=O)O [Ozanimod fumarate Form 1]
Crystalline
CC(C)Oc1ccc(-c2nc(-c3cccc4c3CCC4NCCO)no2)cc1C#N.O=C(O)CC(O)(CC(=O)O)C(=O)O (stereo not shown) [Ozanimod citrate Form 1]
Crystalline
CC(C)Oc1ccc(-c2nc(-c3cccc4c3CCC4NCCO)no2)cc1C#N.CC(C)Oc1ccc(-c2nc(-c3cccc4c3CCC4NCCO)no2)cc1C#N.O=S(=O)(O)O (stereo not shown) [Ozanimod hemisulfate Form 1]
Crystalline

The molecule listed as CC(C)Oc1ccc(-c2nc(-c3cccc4c3CC[C@@H]4NCCO)no2)cc1C#N.O=C(O)C(O)C(O)C(=O)O [Ozanimod L-tartrate Form 1] shows Slurry for 5 days in water (solid state after slurry) equal to Crystalline

The molecule listed as CC(C)Oc1ccc(-c2nc(-c3cccc4c3CC[C@@H]4NCCO)no2)cc1C#N.CC(C)Oc1ccc(-c2nc(-c3cccc4c3CC[C@@H]4NCCO)no2)cc1C#N.O=C(O)C[C@H](O)C(=O)O [Ozanimod hemi-L-malate Form 1] shows Slurry for 5 days in water (solid state after slurry) equal to Crystalline

* * *

assay: Phase stability in aqueous system, slurry for 5 days (Comparative Example 2); type: physicochemical; settings: slurry 5 days, ethanol/water (1:1)
Readout: Slurry for 5 days in ethanol/water (1:1) (solid state after slurry)

CC(C)Oc1ccc(-c2nc(-c3cccc4c3CCC4NCCO)no2)cc1C#N.CC(C)Oc1ccc(-c2nc(-c3cccc4c3CCC4NCCO)no2)cc1C#N.O=C(O)C=CC(=O)O (stereo not drawn) [Ozanimod hemi-fumarate Form 1]
Crystalline
CC(C)Oc1ccc(-c2nc(-c3cccc4c3CCC4NCCO)no2)cc1C#N.O=C(O)CC(O)(CC(=O)O)C(=O)O (stereo not drawn) [Ozanimod citrate Form 1]
Crystalline

Data provenance is patent US20200031784A1.
